EXPERIMENT_SUMMARY: qHTS assay to identify small molecule agonists of the estrogen receptor beta (ER-beta) signaling pathway - cell viability counter screen (AID 1259380); further: nearly all actives have a fitted effect of over 30% in size
RUN_PARAMETERS: ER-beta-bla HEK293T viability, CellTiter-Glo luminescence, 16 h; series mostly up to 92.4 µM
Records with an inconclusive call do not appear. Active and inactive are the calls of the source. The call rests on the fitted dose curve; in most records, active means well fitted cell-killing curve with a large enough effect in the repeat runs; inconclusive means weak or mixed curves, or effect the other way; inactive means flat fitted curve, though single readings scatter.
Outcome field: choose from active, inactive

Below are worked cases with known answers.
SMILES_INPUT	ASSIGNED_CLASS
CCCCCCCCCCCC(=O)O	active
CCCCCC[n+]1ccccc1	inactive
Cc1cc(Cl)ccc1N	inactive

## Input Field: outcome | Entry: C[N+](C)(C)Cc1ccccc1
## Output inactive

## Input I'd appreciate the recorded outcome for O=C(O)C(Cl)(Cl)Cl from this test.
## Output inactive

## Input Dear all, I need the recorded test outcome for CCn1cc[n+](C)c1C , thank you.
## Output inactive

## Input How did this test come out for COP(=O)(OC)OC=C(Cl)Cl ?
## Output inactive

## Input Hi, do you know how O=C(O)c1ccccc1O came out in this test?
## Output inactive

## Input Which result was noted for this compound in the test: CC[N+](CC)(CC)CC
## Output inactive

## Input Status in this test for CNC ?
## Output inactive

## Input Record lookup: outcome of this test for C1CCC(NC2CCCCC2)CC1 ?
## Output inactive

## Input Write down the call the test reported for this compound. Item: CC(=O)O
## Output inactive

## Input Kindly provide the recorded test outcome for the following compound: O=C(O)CCl
## Output inactive

## Input Tell me the recorded outcome of this test for Cc1cc(Cl)ccc1OCC(=O)O .
## Output inactive

## Input Returns: the outcome recorded for COc1ccccc1N in this assay.
## Output inactive

## Input Just curious, what result did O=[N+]([O-])c1ccccc1O get here?
## Output inactive

## Input Check the results log: what was the call for CCCC[N+]1(C)CCCCC1 ?
## Output inactive

## Input Would you mind telling me which call this test gave O=C(O)COc1ccc(Cl)cc1Cl ?
## Output inactive

* * *

EXPERIMENT_SUMMARY: A CellTox Green Cytotoxicity Assay to monitor cytotoxicity in HepG2 cells - 24 hour (AID 1224878); further: nearly all actives have a fitted effect of over 45% in size
RUN_PARAMETERS: CellTox Green fluorescence; series mostly up to 76.8 µM
Results filed as inconclusive are left out. Active and inactive are the calls of the source. The call rests on the fitted dose curve; in most records, active means well fitted activation curve with a large enough effect in the repeat runs; inconclusive means weak or mixed curves; inactive means flat fitted curve, though single readings scatter.
# output must be one of class 1 (active), class 0 (inactive)

Field: example entries. Status: answers known.
COMPOUND	ASSIGNED_CLASS
O=c1[nH]c(=O)n(Cl)c(=O)n1Cl	class 0
CCn1cc[n+](C)c1C	class 0
CCCCCCn1cc[n+](C)c1	class 0
CC[n+]1ccccc1	class 0
CC(=O)O	class 0
CCCC[N+]1(C)CCCC1	class 0
O=C(O)c1ccccc1O	class 0
C[N+](C)(C)Cc1ccccc1	class 0

## Input Outcome? CCCCn1cc[n+](C)c1C
## Output class 0

## Input Could you kindly confirm the outcome this assay logged for COCC(=O)N(c1c(C)cccc1C)C(C)C(=O)OC (stereo unspecified) ?
## Output class 0

## Input Hey, what did the test say about C1CCC(NC2CCCCC2)CC1 ?
## Output class 0

## Input Called result for O=P1(N(CCCl)CCCl)NCCCO1 (stereo unspecified)
## Output class 0

## Input For this compound, state the assay outcome: C=CCOC(Cn1ccnc1)c1ccc(Cl)cc1Cl (stereo unspecified)
## Output class 1

## Input What call does the record list for CCNc1nc(Cl)nc(NCC)n1 ?
## Output class 0

## Input How did this test come out for O=C(O)C(Cl)(Cl)Cl ?
## Output class 0

## Input Which result was noted for this compound in the test: CCCCn1cc[n+](C)c1
## Output class 0

## Input Test call, this compound: CCCCCCCCn1cc[n+](C)c1
## Output class 0

## Input What outcome does the record of this test show for Nc1ccc(-c2ccc(N)cc2)cc1 ?
## Output class 0

## Input How did this test come out for O=C(O)CC(O)(CC(=O)O)C(=O)O ?
## Output class 0

## Input What did the test return for CCC[N+]1(C)CCCCC1 ?
## Output class 0

## Input Could you check what this test reported for O=[N+]([O-])c1ccccc1O ?
## Output class 0

* * *

TARGET_SYSTEM: Nuclear receptor ROR-gamma (Homo sapiens)
EXPERIMENT_SUMMARY: qHTS assay to identify small molecule antagonists of the retinoid-related orphan receptor gamma (ROR-gamma) signaling pathway (AID 1159521; further: nearly all actives have a fitted effect of over 50% in size; further: potency means the concentration at half of the fitted maximal effect)
RUN_PARAMETERS: Tet-on RORgamma CHO cells, RORE-luciferase, 16 h; series mostly up to 92.4 µM
Records with an inconclusive call do not appear. The source made the active and inactive calls. The call rests on the fitted dose curve; in most records, active means well fitted inhibition curve with a large enough effect in the repeat runs; inconclusive means weak or mixed curves, or effect the other way; inactive means no such curve, though single readings can be large or run the other way.
MEASURED_QUANTITY: Potency

Answered cases to consult:
COMPOUND	Potency
Oc1ccccc1-c1ccccc1	inactive
CCCC[n+]1ccccc1	inactive
Nc1ccccc1	inactive
COc1ccccc1N	inactive

## Input So what's the measured Potency for this one? O=C(O)c1nc(Cl)ccc1Cl
## Output inactive

## Input Would you kindly share the measured Potency for Nc1ccc(-c2ccc(N)c(Cl)c2)cc1Cl ?
## Output 68.6 µM (active)

## Input Could you tell me which Potency is on file for O=P1(N(CCCl)CCCl)NCCCO1 (centres undefined) ?
## Output inactive

## Input Name the recorded Potency for Cc1cc(Cl)ccc1OCC(=O)O .
## Output inactive

## Input Please give the measured Potency for this compound: Nc1ccc(-c2ccc(N)cc2)cc1
## Output inactive

## Input Potency lookup needed for C1CCC(NC2CCCCC2)CC1 , thanks.
## Output inactive

## Input State the recorded Potency for this entry: CC[N+]1(C)CCCC1
## Output inactive

## Input Recorded Potency of CCCC[N+]1(C)CCCC1 , please.
## Output inactive

* * *

TARGET_SYSTEM: Nuclear receptor subfamily 1 group I member 2 (Homo sapiens)
EXPERIMENT_SUMMARY: Human pregnane X receptor (PXR) activation by small molecules, qHTS assay (AID 1346985); further: nearly all actives have a fitted effect of over 40% in size
RUN_PARAMETERS: DPX-2 HepG2 CYP3A4-luciferase, 24 h; series mostly up to 38.3 µM
Results filed as inconclusive are left out. Activity calls are given as the source filed them. The call rests on the fitted dose curve; in most records, active means well fitted activation curve with a large enough effect in the repeat runs; inconclusive means weak or mixed curves; inactive means flat fitted curve, though single readings scatter.
Outcome field: choose from active, inactive

For orientation, consider the following solved cases.
SMILES_INPUT	TARGET_SYSTEM	ASSIGNED_CLASS
O=C(O)C(Cl)Cl	Nuclear receptor subfamily 1 group I member 2 (Homo sapiens)	inactive
CCCCCCCCCCCCOS(=O)(=O)O	Nuclear receptor subfamily 1 group I member 2 (Homo sapiens)	inactive
O=C(O)C(Cl)(Cl)Cl	Nuclear receptor subfamily 1 group I member 2 (Homo sapiens)	inactive
CN(C)[C@@H]1C(=O)C(C(N)=O)=C(O)[C@@]2(O)C(=O)C3=C(O)c4c(O)cccc4[C@@](C)(O)[C@H]3[C@H](O)[C@@H]12	Nuclear receptor subfamily 1 group I member 2 (Homo sapiens)	inactive

Consider the record given below.
## Input Called result for CC(=O)[O][Hg][c]1ccccc1
## Output active

* * *

EXPERIMENT_SUMMARY: qHTS assay to identify small molecule antagonists of the progesterone receptor (PR) signaling pathway - cell viability counter screen (AID 1346798);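 further: HEK293T PR-UAS-bla cells stimulated with the agonist R5020; nearly all actives have a fitted effect of over 50% in size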
RUN_PARAMETERS: PR-UAS-bla HEK293T viability, CellTiter-Glo luminescence, 16 h; series mostly up to 92.4 µM
Results filed as inconclusive are left out. The source made the active and inactive calls. Calls come from the whole dose curve; as a rule, active = well fitted cell-killing curve with a large enough effect in the repeat runs; inconclusive = weak or mixed curves, or effect the other way; inactive = no such curve, though single readings can be large or run the other way.
MEASURED_QUANTITY: outcome

Some solved cases for reference:
MOLECULE	outcome
O=P1(N(CCCl)CCCl)NCCCO1 (centres undefined)	inactive
CCCC[n+]1cccc(C)c1	inactive
Nc1ccc(-c2ccc(N)cc2)cc1	inactive
CCCCCCCCn1cc[n+](C)c1	inactive

## Input outcome lookup needed for CC(=O)O , thanks.
## Output inactive

## Input Record request: outcome value, item O=C(O)C(Cl)Cl
## Output inactive

## Input Look at this molecule and give its reported outcome. Cc1cc(-c2ccc(N)c(C)c2)ccc1N
## Output inactive

## Input If you can, please state the reported outcome value of CC(Cl)(Cl)C(=O)O .
## Output inactive

## Input // outcome lookup, key: COc1ccc(N)cc1
## Output inactive

* * *

EXPERIMENT_SUMMARY: qHTS assay for small molecule activators of the heat shock response signaling pathway - cell viability counter screen (AID 743209); further: nearly all actives have a fitted effect of over 50% in size
RUN_PARAMETERS: HSE-bla HeLa viability, CellTiter-Glo luminescence, 5 h; series mostly up to 62.6 µM
Results filed as inconclusive are left out. Calls of active or inactive are those of the source. Calls come from the whole dose curve; as a rule, active = well fitted cell-killing curve with a large enough effect in the repeat runs; inconclusive = weak or mixed curves, or effect the other way; inactive = no such curve, though single readings can be large or run the other way.
MEASURED_QUANTITY: outcome

Consider the following illustrative entries.
COMPOUND	MEASURED_QUANTITY	REPORTED_VALUE
CCCC[n+]1cccc(C)c1	outcome	inactive
CCCC[N+]1(C)CCCCC1	outcome	inactive
Nc1ccc(-c2ccc(N)cc2)cc1	outcome	inactive
O=c1nc(O)n(Cl)c(=O)n1Cl	outcome	inactive
CCCC[n+]1ccccc1C	outcome	inactive
O=C(O)CC(O)(CC(=O)O)C(=O)O	outcome	inactive

## Input // query outcome value for entry C=CCOC(Cn1ccnc1)c1ccc(Cl)cc1Cl (stereo unspecified)
## Output inactive

## Input Returns the measured outcome for the input compound. Input: O=C(O)c1nc(Cl)ccc1Cl
## Output inactive

## Input Data request, read-out outcome, for CCOP(=S)(OCC)Oc1ccc2c(C)c(Cl)c(=O)oc2c1
## Output inactive

## Input Sample O=[N+]([O-])c1ccccc1O — what was its outcome?
## Output inactive

## Input Fill in the blank: the reported outcome of O=[N+]([O-])O is ____.
## Output inactive
